Origin of the recorded values: patent US20260042764A1

target: Avi-KRAS G12V (1-169) GppNHp/RAF1 RBD-3xFLAG (52-151) (Homo sapiens, UniProt P01116, G12V); construct: Avi-KRAS G12V (1-169); test: Raf1-KRAS G12V-GppNHP disruption HTRF assay (Biological Example 1); type: binding; settings: KRAS G12V, GppNHp-loaded; class symbols
Sequence (P01116 1-169 isoform P01116-2 G12V): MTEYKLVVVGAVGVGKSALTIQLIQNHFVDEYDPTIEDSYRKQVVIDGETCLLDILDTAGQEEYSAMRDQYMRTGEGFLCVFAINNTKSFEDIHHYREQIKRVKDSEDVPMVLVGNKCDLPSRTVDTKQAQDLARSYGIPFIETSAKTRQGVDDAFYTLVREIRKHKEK
Listed here are compounds together with their documented IC50.

[ask] Given the compound CN(C)C(=O)N1CC[C@H](N(C)c2nc(OC[C@@]34CCCN3C[C@H](F)C4)nc3c(F)c(-c4ccc(F)c5sc(N)c(C#N)c45)c(C(F)(F)F)cc23)C1 (atropisomer, axis not shown) , what is its reported IC50?
[reply] 100 to 1000 nM

Below: the item to evaluate.
[ask] Reported IC50, compound CCN(c1nc(OC[C@@]23CCCN2C[C@H](F)C3)nc2c(F)c(-c3ccc(F)c4sc(N)c(C#N)c34)c(C(F)(F)F)cc12)[C@H]1CCN(C(=O)N2CC(OC)C2)[C@@H]1C (atropisomer, axis not shown) : ____
[reply] < 100 nM
